All values here come from patent US8367873B2.

Tested on: Setaria viridis
Assay: Herbicidal pre-emergence action
Assay type: in vivo
Conditions: pre-emergence method, 80 g/ha, greenhouse, visual assessment vs untreated controls
Property Measured: herbicidal effect SETVI (%)
Reply with just the number (in %).

Could you share which herbicidal effect SETVI value was measured for CCc1cc(C)cc(CC)c1C1=C(O)C2CC3(CC2C1=O)OC(C)CC(C)O3 (mixture of isomers) [I-a-12] ? 90

Which measured herbicidal effect SETVI value corresponds to CCc1cc(C)cc(CC)c1C1=C(OC(=O)C(C)C)C2CC3(CC2C1=O)OCC(C)CO3 (centres unmarked) [I-b-14] ? 100

What measured herbicidal effect SETVI goes with COc1cc(C)cc(C)c1C1=C(OC(=O)C(C)C)C2CC3(CC2C1=O)OCCO3 (centres unmarked) [I-b-65] ? 70

Suppose we examine the compound Cc1cc(C)c(C2=C(O)[C@H]3CC4(C[C@H]3C2=O)OCC(C)CO4)c(C)c1 (relative stereo) [I-a-38] ; what herbicidal effect SETVI value has been reported? 90

// herbicidal effect SETVI lookup, key: COc1cc(C)cc(C)c1C1=C([O-])C2CC3(CC2C1=O)OCCCCO3.[Na+] (centres unmarked) [I-f-5] 90

So what's the measured herbicidal effect SETVI for this one? CCc1cc(C)cc(C)c1C1=C(OC(=O)C(C)C)C2CC3(COC(C)(C)O3)CC2C1=O (centres unmarked) [I-b-69] 80

Give the measured herbicidal effect SETVI of CCOC(=O)OC1=C(c2c(CC)cc(C)cc2CC)C(=O)C2CC3(CC12)OCC(C)(C)CO3 (centres unmarked) [I-c-22] . 100

Can you share its herbicidal effect SETVI? I mean this compound: CCc1cc(C)cc(CC)c1C1=C(O)[C@H]2CC3(C[C@H]2C1=O)OCC(OC)CO3 (relative stereo) [I-a-26] 100

# herbicidal effect SETVI lookup, item CCOC1COC2(CC3C(=O)C(c4c(CC)cc(C)cc4CC)=C(OC(=O)C(C)C)C3C2)OC1 (centres unmarked) [I-b-16] 100

Form field: reported herbicidal effect SETVI of CCc1cc(C)cc(CC)c1C1=C(OC(=O)C(C)(C)C)C2CC3(COC(C)(C)O3)CC2C1=O (centres unmarked) [I-b-5] 60

Recorded herbicidal effect SETVI for Cc1cc(C)c(C2=C(O)C3CC4(CC3C2=O)OCCCCO4)c(C)c1 (centres unmarked) [I-a-40] , please? 50
